From: patent US7754689B2

# system: T1, BMP-12 (UniProt Q7Z4P5 322-450, limits assumed)
# T1 construct: also called BMP12/GDF7
# T1 sequence (looked up): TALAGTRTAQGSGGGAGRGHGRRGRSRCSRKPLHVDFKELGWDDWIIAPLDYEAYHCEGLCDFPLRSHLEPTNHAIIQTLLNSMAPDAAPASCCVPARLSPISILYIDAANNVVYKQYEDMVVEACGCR
# protocol description: peptide resin, filter plate; load 11: 50 mM Tris, 0.25 M NaCl, 30% MPD, pH 8.0
No end group written: not given here.
assay endpoint: Flow-through K

- Ac-ELGWDDWIIAPLDYEAYHSEGLK [BMP12 N-trun_1S peptide 749]: 0
- Ac-LYVDFSDVGWNDWIVAPPGYHAFYSHGEK [BMP2 Full peptide 747]: 0
- Ac-SDVGWNDWIVAPPGYHAFYCHGEK [BMP2 N-trun peptide 750]: 1
- Ac-VAPPGYHAFYSHGEK [BMP2 N-trunc_2 peptide 745]: 0
